The reported numbers originate from ChEMBL document CHEMBL4513216.

cytotoxicity at 10 µM listing for selected compounds.
assay-summary: Toxicity liver stage against HepG2, at 10uM
Type: cell-based
Set-up: test concentration 10 uM, cell line HepG2-A16-CD81EGFP
experimental-context: human, HepG2-A16-CD81EGFP cells; read-out: INHIBITION

Use the examples below as a reference point.
- compound: "C[S+]([O-])c1cccc(NC(=O)N[C@H](CCO)c2ccccc2)c1 (stereo partly specified)"
  assay-readout: "cytotoxicity at 10 µM"
  value-reported: "-3.13%"
- compound: "CN(C)C[C@H]1C[C@@H]2CN(C(=O)c3ccco3)C[C@@H]2O1"
  assay-readout: "cytotoxicity at 10 µM"
  value-reported: "-5.77%"
- compound: "Cc1ccccc1CCC(=O)N1CCc2ncnc(NCCO)c2CC1"
  assay-readout: "cytotoxicity at 10 µM"
  value-reported: "-21%"
- compound: "Cc1ccc(C(=O)N2C[C@@H](OCc3cccnc3)[C@H]3OCCC[C@@H]32)o1"
  assay-readout: "cytotoxicity at 10 µM"
  value-reported: "-2.52%"
- compound: "CN1CC[C@@H]2OC[C@H](C(=O)N(C)Cc3ccccn3)C[C@@H]2C1"
  assay-readout: "cytotoxicity at 10 µM"
  value-reported: "-98%"
- compound: "Cc1cnn(CC2CCCCN2C(=O)c2cnc3n[nH]c(C)c3c2)c1 (stereo unspecified)"
  assay-readout: "cytotoxicity at 10 µM"
  value-reported: "-26.2%"

Quick one: cytotoxicity at 10 µM for `Cc1nn(CC(=O)O)c(C)c1NS(=O)(=O)c1cc2ccccc2s1` ?
-7.07%

Which cytotoxicity at 10 µM reading was recorded for the compound `Cc1ncc2c(n1)CN(Cc1cn3ccsc3n1)CC2` ?
-9.06%

Need cytotoxicity at 10 µM, item `CCN(CC(=O)N(C)C)S(=O)(=O)c1cnc2c(c1)c(C)nn2C`
2.59%

---

assay-summary: Toxicity liver stage against HepG2, at 10uM
Assay type: cell-based
Design: test concentration 10 uM, cell line HepG2-A16-CD81EGFP
experimental-context: human, HepG2-A16-CD81EGFP cells; read-out: INHIBITION
assay-readout: cytotoxicity at 10 µM (%)
Unit % implied. Number only.

- compound: "O=C(Cc1ccccn1)N1CCc2c(O)nc(-c3cnccn3)nc2C1"
  value-reported: -27

Sample Cc1nc(CN2CCCC3(CCN(c4cccnc4)C3=O)C2)cs1 (stereo unspecified) — what was its cytotoxicity at 10 µM?
0.574

Can you share its cytotoxicity at 10 µM? I mean this compound: `CN(C(=O)[C@H]1CSCN1C(=O)OC(C)(C)C)C1CC1`
15.4

Which cytotoxicity at 10 µM is reported for this compound? Cc1nn(C)c(C)c1C1COCCN1C(=O)Cc1cccc(F)c1 (stereo unspecified)
-11

Name the recorded cytotoxicity at 10 µM for `c1ccc(OCCCn2ccnc2-c2cn(C3CCNCC3)nn2)cc1` .
-18.1

---

assay-summary: Toxicity liver stage against HepG2, at 10uM
Format: cell-based
Set-up: test concentration 10 uM, cell line HepG2-A16-CD81EGFP
experimental-context: human, HepG2-A16-CD81EGFP cells; read-out: INHIBITION
assay-readout: cytotoxicity at 10 µM (%)
Write the answer as a number in %, unit excluded.

Look up cytotoxicity at 10 µM for this compound: Cc1cccc(CN2CCO[C@@H]3CC(COc4ccccn4)C[C@H]32)n1 (some centres undefined)
-3.31

---

assay-summary: Toxicity liver stage against HepG2, at 10uM
Assay type: cell-based
Parameters: test concentration 10 uM, cell line HepG2-A16-CD81EGFP
experimental-context: human, HepG2-A16-CD81EGFP cells; read-out: INHIBITION
The following molecules are shown together with reported cytotoxicity at 10 µM values.
Response body: numeric value in %, unit text excluded.

Query: cytotoxicity at 10 µM; subject: CCc1noc(C(C)N2CCNCC2)n1 (configuration not stated)
-3.46

# cytotoxicity at 10 µM lookup, item CCn1nc(C)c(CNC(=O)c2cn(CC3CCCO3)nn2)c1C (configuration not stated)
-2.34

Any idea what cytotoxicity at 10 µM was measured for `CC1=C[C@@H](CN2CCN(C)CC2)[C@H](C(C)C)C[C@H]1Cc1nnc(C)o1` ?
-0.39

Quick one: cytotoxicity at 10 µM for c1cnn(-c2ccc(CN3CCOC(Cn4cncn4)C3)cc2)c1 (configuration not stated) ?
-13.6

I have this molecule here, `N#Cc1ccc(SCCOCCO)c(Cl)c1` , and I need its recorded cytotoxicity at 10 µM.
2.68

Query: cytotoxicity at 10 µM; subject: `COc1ccccc1OCCn1c(C)c(C)oc1=O`
-3.05

Given the molecule `O=C1CC[C@@H](C(=O)N2CCC(Cn3cc(C4CCCCC4)nn3)CC2)N1` , what is its reported cytotoxicity at 10 µM?
8.02

I am curious: what cytotoxicity at 10 µM value has been reported for `Cc1ncsc1-c1nnc(C2CCN(Cc3ccc(Cl)cc3)CC2)o1` ?
-4.41

So what's the measured cytotoxicity at 10 µM for this one? `CC(C)NC(=O)COc1ccc(-c2nc(C(C)C)no2)cc1`
5.67

Look at this molecule and give its reported cytotoxicity at 10 µM. `CCOc1cc(CNCCCn2ccnc2)cc(Cl)c1OC`
-5.21

State the recorded cytotoxicity at 10 µM for this entry: COc1cccc(C2CCCN2Cc2nc3c(cnn3C)c(=O)[nH]2)c1 (configuration not stated)
-4.35

Item CC(NC(=O)C1CC1)c1cc(O)nc(-c2cccnc2)n1 (configuration not stated) has what recorded cytotoxicity at 10 µM?
2.67

---

Measured cytotoxicity at 10 µM values are reported for all entries that follow.
assay-summary: Toxicity liver stage against HepG2, at 10uM
Format: cell-based
Set-up: test concentration 10 uM, cell line HepG2-A16-CD81EGFP
experimental-context: human, HepG2-A16-CD81EGFP cells; read-out: INHIBITION
Write the answer as a number in %, unit excluded.

Observe how each entry below is paired with its result.
- compound: "COc1cc2c(cc1CNC(=O)Cc1cc(C)[nH]n1)OC(C)C2 (configuration not stated)"
  cytotoxicity at 10 µM (%): -13.8
- compound: "CS(=O)(=O)NCC(=O)NC1CCc2nccn2C1 (configuration not stated)"
  cytotoxicity at 10 µM (%): 16.2
- compound: "CC(NC(=O)CSCC#N)c1ccc(F)cc1 (configuration not stated)"
  cytotoxicity at 10 µM (%): -2.51
- compound: "Cc1ccc(CN2C[C@H]3C[C@H](C(=O)NCC4CC4)N(C)[C@H]3C2)o1"
  cytotoxicity at 10 µM (%): -3.13
- compound: "CN(Cc1ccc(F)cc1)C(=O)NCc1nnc2n1CCCCC2"
  cytotoxicity at 10 µM (%): -10.1

GET /values?readout=cytotoxicity at 10 µM&item= `CNCc1cn(C2CCN(C(=O)NCc3ccco3)CC2)nn1`
1.11

Using the record for `CCCc1nnc(NC2CCN(CCO)CC2)o1` , report its cytotoxicity at 10 µM.
8.35

---

assay-summary: Toxicity liver stage against HepG2, at 10uM
Assay type: cell-based
Parameters: test concentration 10 uM, cell line HepG2-A16-CD81EGFP
experimental-context: human, HepG2-A16-CD81EGFP cells; read-out: INHIBITION
cytotoxicity at 10 µM values, listed per item
Report the value in % with no unit label.

Please review the entries below; each comes with its answer.
- molecule: "Fc1cnc(N2CCOCC3(CCCNC3)C2)nc1 (configuration not stated)"
  value-reported: -5.36
- molecule: "Cc1nn(C)c(C)c1NC(=O)CNc1cc(C(F)(F)F)ccc1F"
  value-reported: 13.4
- molecule: "CCc1csc(CCNC(=O)C2CC(=O)N(C(C)C)C2)n1 (configuration not stated)"
  value-reported: -11.9

// next item, cytotoxicity at 10 µM requested
Param item = Cc1noc(CCCC(=O)NCC(c2ccco2)N2CCCC2)n1 (configuration not stated) ; retrieve measured cytotoxicity at 10 µM.
-0.363

---

Quick list: cytotoxicity at 10 µM per entry.
assay-summary: Toxicity liver stage against HepG2, at 10uM
Type: cell-based
Parameters: test concentration 10 uM, cell line HepG2-A16-CD81EGFP
experimental-context: human, HepG2-A16-CD81EGFP cells; read-out: INHIBITION
// note: answer is a bare numeric in %

Solved cases (5 shown):
- compound: "O=C1CC(c2ccsc2)c2sc(C(=O)O)c(-c3ccccc3)c2N1 (stereo unspecified)"
  unit-abbreviation: "%"
  value-reported: 15.2
- compound: "COc1ccc(-c2nnc(SC(C)C(=O)NC3CC3)[nH]2)c(OC)c1 (stereo unspecified)"
  unit-abbreviation: "%"
  value-reported: 45.3
- compound: "CNc1cc(C)nc(-c2cc(NC3CCNCC3)nc3[nH]ccc23)n1"
  unit-abbreviation: "%"
  value-reported: -2.98
- compound: "CCc1nc2c(c(NCc3nc(-c4cccnc4)no3)n1)CCNCC2"
  unit-abbreviation: "%"
  value-reported: 5.85
- compound: "CC(=O)N1CCC(c2nnc3ccc(C(=O)NCCN(C)C)cn23)C1 (stereo unspecified)"
  unit-abbreviation: "%"
  value-reported: -104

Look up cytotoxicity at 10 µM for this compound: `Cc1cccc2[nH]c(C3CCN(C(=O)c4cnc(O)cc4O)CC3)nc12`
3.09
